# PROTOCOL: GHS categories as the set defines them, by LD50: 1 up to 5, 2 up to 50, 3 up to 300, 4 up to 2000, 5 above 2000 mg/kg
# CONDITION SUMMARY: rat; in vivo; po
# Text: […]The data set underlying the modeling effort for this project was initially compiled by NICEATM and U.S. EPA’s CCTE. Briefly, LD50 data were collected from rat acute oral systemic toxicity tests, including limit tests, ranges/confidence intervals, and discrete LD50 values. The full data set included 21,200 LD50 entries for 15,688 substances. […]
The reader will find reported GHS category values listed item by item below.

C=CCCCCCCCCC(C)CCCCCCCC (stereo unspecified)	5
O=S(=O)(O)c1ccc(Nc2nc(Nc3ccc(C=Cc4ccc(Nc5nc(Nc6ccc(S(=O)(=O)O)cc6)nc(N6CCOCC6)n5)cc4S(=O)(=O)O)c(S(=O)(=O)O)c3)nc(N3CCOCC3)n2)cc1	5
CCC[C@H]1CC[C@H](c2ccc(O)cc2)CC1	5
CC1=C(C(=O)O)N2C(=O)[C@@H](NC(=O)C(N)C3=CCC=CC3)[C@H]2SC1 (stereo partly specified)	5
CC(C=O)(CO)CO	5

Reported GHS category for CC(C)(Oc1ccc(Cl)cc1)C(=O)NC(=O)NCN1CCOCC1 : what is it?
5

I'd like to know its GHS category. The compound in question is CC1C(C)(C)C2CCc3cncnc3C2C1(C)C (stereo unspecified)
4

Query: GHS category; subject: C1=CCC(c2ccccc2)CC1 (stereo unspecified)
5

Quick one: GHS category of Cc1cccc2ncc(C(=O)Nc3ccc(F)cc3)c(=O)n12 ?
3

Entry under review: COc1ccc2c(c1)CCN(c1ccccc1)C2c1ccccc1 (stereo unspecified) . Reported GHS category?
4

What value of GHS category has been reported for the following compound? OC1CCOC1 (stereo unspecified)
5

Need GHS category, item Nc1ncnc2c1ncn2[C@@H]1O[C@H](CO)[C@@H](O)[C@@H]1O
5

====

# PROTOCOL: GHS categories as the set defines them, by LD50: 1 up to 5, 2 up to 50, 3 up to 300, 4 up to 2000, 5 above 2000 mg/kg
# CONDITION SUMMARY: rat; in vivo; po
// reported GHS category per item
Lab note: record the figure alone, no unit after it.

Illustrative cases are given below, each with its answer.
COC(=O)c1ccc(C(=O)OC)c(N)c1	5
CCCCCCCC1CCCC(=O)O1 (centres undefined)	5
CN(C)CCn1nnnc1SCC1=C(C(=O)O)N2C(=O)[C@@H](NC(=O)Cc3csc(N)n3)[C@H]2SC1	5
Nc1ccc2oc(N)nc2c1	4
O=C(OCCOCCO)c1ccccc1Nc1ccc(O)c(C(F)(F)F)c1	4
CCCCCCCNC(=O)c1cnc2cccc(C)n2c1=O	3
CCCBr	5
CCCCCCC(C)O (centres undefined)	5
Cc1cnc(C2=NC(=O)C(C)(C(C)C)N2)c(C(=O)O)c1 (centres undefined)	5
O=P(Oc1ccccc1)(Oc1ccccc1)Oc1ccccc1-c1ccccc1	5

For CCCC(=O)O[C@H]1[C@H](C)O[C@@H](O[C@H]2[C@H](N(C)C)[C@@H](O)[C@H](O[C@H]3[C@@H](CC=O)C[C@@H](C)[C@@H](O)/C=C/C=C/C[C@@H](C)OC(=O)C[C@@H](O)[C@@H]3OC)O[C@@H]2C)C[C@@]1(C)OC(=O)CC , what is its reported GHS category?
5

====

Here the recorded GHS category is given for each entry.
# PROTOCOL: GHS categories as the set defines them, by LD50: 1 up to 5, 2 up to 50, 3 up to 300, 4 up to 2000, 5 above 2000 mg/kg
# CONDITION SUMMARY: rat; in vivo; po

O=[N+]([O-])c1ccc2c(c1)COP(=S)(N1CCCCC1)O2 (configuration not stated)	3
O=CC1=C(C(Cl)(Cl)Cl)C(Cl)(Cl)C(O)C1(Cl)Cl (configuration not stated)	4
CO/N=C(/C1=NOCCO1)c1ccccc1Oc1ncnc(Oc2ccccc2Cl)c1F	5
Nc1ccc(CCc2ccc(N)cc2)cc1	5
CN1C(CSCC(F)(F)F)Nc2cc(Cl)c(S(N)(=O)=O)cc2S1(=O)=O (configuration not stated)	2
CN(CCO)S(=O)(=O)C(F)(F)C(F)(F)C(F)(F)C(F)(F)F	5

// lookup GHS category for Cc1c(C2=C(O)CC(C)(C)CC2=O)c2c(n1-c1ccccc1)CC(C)(C)CC2=O
5

Could you tell me which GHS category is on file for NC(N)=N[C@@H](CS)C(=O)O ?
5

What does the data say about its GHS category? Entry: c1ccc2sc(SSc3nc4ccccc4s3)nc2c1
5

// lookup GHS category for COc1cccc(OC)c1C(=O)NC(=O)Nc1c(F)cccc1F
4

So what's the measured GHS category for this one? C=CC(=C)CCC=C(C)CCC=C(C)C=O
5

Would you mind telling me what GHS category value was observed for Nc1cc(C(=O)O)ccc1Cl ?
5

====

# PROTOCOL: rat acute oral toxicity
# CONDITION SUMMARY: in vivo
Category scheme (LD50): range 1 = under 200 mg/kg, range 2 = from 200 mg/kg up to 1000 mg/kg, range 3 = 1000 mg/kg and over

CC1(C)C(C=C(Cl)Cl)C1C(=O)OC(C#N)c1ccc(F)c(Oc2ccccc2)c1 (stereo unspecified)	range 2
Oc1ccccc1O	range 2
NC(=S)Nc1cccc2ccccc12	range 1
CC1=CC(C)(C)CC(=O)C1	range 3
O=C(CCCN1CCC(O)(c2ccc(Cl)cc2)CC1)c1ccc(F)cc1	range 1
Cc1cccc([N+](=O)[O-])c1	range 3
CCCCCCCCCCCCCC[N+](C)(C)CCCCCCCCCCCCCC	range 2
ClC(Cl)=C(Cl)Cl	range 3

// return the class label for CCC1(c2ccccc2)C(=O)NC(=O)NC1=O
range 1

Exam item: assign CCCC=C(C=O)CC to the correct category.
range 3

Which LD50 band matches O=C1CCCN1 ?
range 2

Which class holds CCNc1nc(Cl)nc(NC(C)(C)C#N)n1 ?
range 1

Sort into band: CCOP(=O)(N=C1SCC(C)S1)OCC (stereo unspecified)
range 1

Kindly identify the class of CNC(=O)N(C)c1nnc(C(C)(C)C)s1 .
range 2

Just checking, what class would you give c1ccc(-c2ccccn2)nc1 here?
range 1

====

# PROTOCOL: GHS categories as the set defines them, by LD50: 1 up to 5, 2 up to 50, 3 up to 300, 4 up to 2000, 5 above 2000 mg/kg
# CONDITION SUMMARY: rat; in vivo; po
EXPERIMENTAL ENDPOINT: GHS category

Here's what some known entries look like.
CN1OCCC(=Cc2cc(C(C)(C)C)c(O)c(C(C)(C)C)c2)C1=O	4
CCOCOC1CCCCCCCCCCC1	5
O=C(Cc1cccs1)N[C@@H]1C(=O)N2C(C(=O)O)=C(CO)CS[C@H]12	5
CCCCCCOc1ccc(-c2nc(-c3ccccc3)nc(-c3ccccc3)n2)c(O)c1	5
COC(=O)c1ccccc1CS(=O)(=O)NC(=O)Nc1nc(OC)cc(OC)n1	5
C[C@]1(Cn2ccnn2)[C@H](C(=O)O)N2C(=O)C[C@H]2S1(=O)=O	5
Nc1nc(N)nc(Nc2nc(N)nc(N)n2)n1	5
COc1ccc(-c2cc(=O)c3c(OCCO)cc(O[C@@H]4O[C@H](CO[C@@H]5O[C@@H](C)[C@H](O)[C@@H](O)[C@H]5O)[C@@H](O)[C@H](O)[C@H]4O)cc3o2)cc1O	5
CCCCCCCCCCC[C@@H]1C[C@H](O)[C@H](CCCCCC)C(=O)O1	5

Now examine the next entry.
Value lookup for GHS category; key = CC(C)N1C2CCC1CC(OC(=O)C(CO)c1ccccc1)C2 (stereo not given)
4

====

# PROTOCOL: GHS categories as the set defines them, by LD50: 1 up to 5, 2 up to 50, 3 up to 300, 4 up to 2000, 5 above 2000 mg/kg
# CONDITION SUMMARY: rat; in vivo; po
# Excerpt: […]The data set underlying the modeling effort for this project was initially compiled by NICEATM and U.S. EPA’s CCTE. Briefly, LD50 data were collected from rat acute oral systemic toxicity tests, including limit tests, ranges/confidence intervals, and discrete LD50 values. The full data set included 21,200 LD50 entries for 15,688 substances. […]
EXPERIMENTAL ENDPOINT: GHS category
Form rule: numeric answer, no unit written next to it.

c1ccc(CSCc2ccccc2)cc1	5
CCOC(=O)C(C)CC (centres undefined)	5
CC(C)c1ccc(S(=O)(=O)O)cc1	5

Could you tell me which GHS category is on file for Cc1cccn2c(=O)c(C(=O)NC3CCCC3)cnc12 ?
3

Which GHS category reading was recorded for the molecule CC(=O)OCC(=O)[C@@]1(O)CC[C@H]2[C@@H]3CCC4=CC(=O)CC[C@]4(C)[C@@]3(F)[C@@H](O)C[C@@]21C ?
4
